experimentalProtocol: Chemical stability of the compound in pH 7.4 PBS buffer assessed as compound remaining measured after 2 hrs by HPLC analysis
Assay type: physicochemical
recordedConditions: read-out: Stabilty
propertyMeasured: remaining at 2 h (%)

>>> df
                                   compound  propertymeasured  endpointunit  readoutvalue
0  C[C@@H]1CN(C(=O)c2nc(Nc3cc(C4CC4)[nH]n3)c3cc(Cl)ccc3n2)CCN1C(=O)OCc1ccccc1  remaining at 2 h             %          97.7
1  C[C@@H]1CN(C(=O)c2nc(Nc3cc(C4CC4)[nH]n3)c3cc(Cl)ccc3n2)CCN1C(=O)OCC(Cl)(Cl)Cl  remaining at 2 h             %          98.7
2  CCCCCOC(=O)N1CCN(C(=O)c2nc(Nc3cc(C4CC4)[nH]n3)c3cc(Cl)ccc3n2)C[C@H]1C  remaining at 2 h             %          99.8
3  CC(OC(=O)C(C)C)OC(=O)N1CCN(C(=O)c2nc(Nc3cc(C4CC4)[nH]n3)c3cc(Cl)ccc3n2)C[C@H]1C (some centres undefined)  remaining at 2 h             %          96.6

----------
experimentalProtocol: Stability of the compound in human plasma assessed as compound remaining measured within 120 mins at 37 degC by HPLC analysis
Format: ADME, cell-free
recordedConditions: read-out: Stabilty
propertyMeasured: remaining at 2 h (%)

# count of solved cases: 6
>>> print(df.to_string())
                                   compound  readoutvalue
0  CC(C)C(=O)OCOC(=O)N1CCN(C(=O)c2nc(Nc3cc(C4CC4)[nH]n3)c3cc(Cl)ccc3n2)C[C@H]1C           6.1
1  C[C@@H]1CN(C(=O)c2nc(Nc3cc(C4CC4)[nH]n3)c3cc(Cl)ccc3n2)CCN1C(=O)OCOC(=O)C(C)(C)C             0
2  CC(OC(=O)N1CCN(C(=O)c2nc(Nc3cc(C4CC4)[nH]n3)c3cc(Cl)ccc3n2)C[C@H]1C)OC(=O)C(C)(C)C (stereo partly drawn)          49.4
3  C[C@@H]1CN(C(=O)c2nc(Nc3cc(C4CC4)[nH]n3)c3cc(Cl)ccc3n2)CCN1C(=O)OCC(Cl)(Cl)Cl            79
4  C[C@@H]1CN(C(=O)c2nc(Nc3cc(C4CC4)[nH]n3)c3cc(Cl)ccc3n2)CCN1.Cl          97.4
5  CC(C)COC(=O)N1CCN(C(=O)c2nc(Nc3cc(C4CC4)[nH]n3)c3cc(Cl)ccc3n2)C[C@H]1C          73.7

I: C[C@@H]1CN(C(=O)c2nc(Nc3cc(C4CC4)[nH]n3)c3cc(Cl)ccc3n2)CCN1C(=O)OCc1ccccc1
II: CC(OC(=O)C(C)C)OC(=O)N1CCN(C(=O)c2nc(Nc3cc(C4CC4)[nH]n3)c3cc(Cl)ccc3n2)C[C@H]1C (stereo partly drawn)
## Task Please indicate which has the smaller reported remaining at 2 h: I , or II . Kindly state the label of the option you pick.
## Result II

----------
experimentalProtocol: Initial plasma concentration in Wistar rat at 2 mg/kg, iv measured upto 24 hrs by LC/MS/MS analysis
Format: ADME, organism-based
recordedConditions: in vivo
propertyMeasured: C0 (ng/mL)
Use ng/mL as the unit, but write only the number.

## Task GET /values?readout=C0&item= "C[C@@H]1CN(C(=O)c2nc(Nc3cc(C4CC4)[nH]n3)c3cc(Cl)ccc3n2)CCN1.Cl"
## Result 4520

----------
experimentalProtocol: Stability of the compound in rat liver S9 fraction assessed as compound remaining measured after 60 mins at 37 degC by LC-MS/MS analysis
Type: ADME, subcellular
recordedConditions: read-out: Stabilty
propertyMeasured: remaining at 1 h (%)

Observe how each entry below is paired with its result.
                                   compound  endpointunit  readoutvalue
0  CCOC(=O)N1CCN(C(=O)c2nc(Nc3cc(C4CC4)[nH]n3)c3cc(Cl)ccc3n2)C[C@H]1C             %          48.5
1  C[C@@H]1CN(C(=O)c2nc(Nc3cc(C4CC4)[nH]n3)c3cc(Cl)ccc3n2)CCN1.Cl             %          53.9
2  C[C@@H]1CN(C(=O)c2nc(Nc3cc(C4CC4)[nH]n3)c3cc(Cl)ccc3n2)CCN1C(=O)OC(C)(C)C             %          71.3
3  CC(OC(=O)N1CCN(C(=O)c2nc(Nc3cc(C4CC4)[nH]n3)c3cc(Cl)ccc3n2)C[C@H]1C)OC(=O)C(C)(C)C (stereo partly drawn)             %          66.3
4  CC(C)OC(=O)N1CCN(C(=O)c2nc(Nc3cc(C4CC4)[nH]n3)c3cc(Cl)ccc3n2)C[C@H]1C             %          78.6

a: CC(C)COC(=O)N1CCN(C(=O)c2nc(Nc3cc(C4CC4)[nH]n3)c3cc(Cl)ccc3n2)C[C@H]1C
b: COC(=O)N1CCN(C(=O)c2nc(Nc3cc(C4CC4)[nH]n3)c3cc(Cl)ccc3n2)C[C@H]1C
c: CC(C)C(=O)OCOC(=O)N1CCN(C(=O)c2nc(Nc3cc(C4CC4)[nH]n3)c3cc(Cl)ccc3n2)C[C@H]1C
## Task Order by remaining at 1 h, ascending. Answer by listing the labels in the order asked for.
## Result c, b, a
(c: 14%, b: 34.2%, a: 61.1%)

----------
experimentalProtocol: Half life in Wistar rat at 2 mg/kg, iv measured upto 24 hrs by LC/MS/MS analysis
Type: ADME, organism-based
recordedConditions: in vivo
propertyMeasured: half-life (h)
Give the number; h is assumed, so skip it.

## Task Entry under review: "C[C@@H]1CN(C(=O)c2nc(Nc3cc(C4CC4)[nH]n3)c3cc(Cl)ccc3n2)CCN1.Cl" . Reported half-life?
## Result 4.8

----------
experimentalProtocol: Prodrug conversion in human plasma assessed as release of active metabolite (R)-(6-chloro-4-(5-cyclopropyl-1H-pyrazol-3-ylamino)quinazolin-2-yl)(3-methylpiperazin-1-yl)methanone hydrochloride measured within 120 mins at 37 degC by HPLC analysis
Assay type: ADME, cell-free
recordedConditions: 2 h
propertyMeasured: Drug metabolism (%)

P: CC(C)C(=O)OCOC(=O)N1CCN(C(=O)c2nc(Nc3cc(C4CC4)[nH]n3)c3cc(Cl)ccc3n2)C[C@H]1C
Q: COC(=O)N1CCN(C(=O)c2nc(Nc3cc(C4CC4)[nH]n3)c3cc(Cl)ccc3n2)C[C@H]1C
## Task Which value of Drug metabolism is greater, the one for P or the one for Q ? Refer to your chosen entry by its label in the reply.
## Result P

----------
experimentalProtocol: Stability of the compound in rat liver S9 fraction assessed as compound remaining measured after 60 mins at 37 degC by LC-MS/MS analysis
Type: ADME, subcellular
recordedConditions: read-out: Stabilty
propertyMeasured: remaining at 1 h (%)

                                   compound  propertymeasured  endpointunit  readoutvalue
0  CC(OC(=O)C(C)C)OC(=O)N1CCN(C(=O)c2nc(Nc3cc(C4CC4)[nH]n3)c3cc(Cl)ccc3n2)C[C@H]1C (stereo not given in full)  remaining at 1 h             %            11
1  C[C@@H]1CN(C(=O)c2nc(Nc3cc(C4CC4)[nH]n3)c3cc(Cl)ccc3n2)CCN1C(=O)OCOC(=O)C(C)(C)C  remaining at 1 h             %            47
2  CCCCCOC(=O)N1CCN(C(=O)c2nc(Nc3cc(C4CC4)[nH]n3)c3cc(Cl)ccc3n2)C[C@H]1C  remaining at 1 h             %          63.9

1: C[C@@H]1CN(C(=O)c2nc(Nc3cc(C4CC4)[nH]n3)c3cc(Cl)ccc3n2)CCN1C(=O)OCc1ccccc1
2: C[C@@H]1CN(C(=O)c2nc(Nc3cc(C4CC4)[nH]n3)c3cc(Cl)ccc3n2)CCN1C(=O)OCC(Cl)(Cl)Cl
## Task Looking only at measured remaining at 1 h, which entry is lower, 1 or 2 ? Which one? Tell me its label.
## Result 1
(1: 45.6%, 2: 78.9%)

----------
experimentalProtocol: AUC (0 to infinity) in Wistar rat at 10 mg/kg, po measured upto 24 hrs by LC/MS/MS analysis
Type: ADME, organism-based
Parameters: route oral, dose 10 mg/kg, time <=24
recordedConditions: in vivo
propertyMeasured: AUC(0-inf) (ng·h/mL)
A number alone suffices; assume ng·h/mL.

## Task Report AUC(0-inf) for "C[C@@H]1CN(C(=O)c2nc(Nc3cc(C4CC4)[nH]n3)c3cc(Cl)ccc3n2)CCN1.Cl" please.
## Result 108
